Tested on: HL-1
protocol_text: relative cell viability (CellTiter-Glo) vs DMSO control (% of DMSO control); higher = more viable cells
condition_set: oxygen condition: normoxia 72 h; 1000 nM
Where a name gives a salt, the structure may show the parent alone.
reported_property: relative cell viability
Keep the answer to the number alone.

Q: Which relative cell viability reading was recorded for the molecule CN1CCC(OC(c2ccccc2)c2ccccc2)CC1 [Diphenylpyraline HCl] ?
Ans: 102

Q: Which relative cell viability value belongs to Nc1cccc2c1C(=O)N(C1CCC(=O)NC1=O)C2=O (stereo not given) [Pomalidomide] ?
Ans: 103

---

Test system: HL-1
protocol_text: relative cell viability (CellTiter-Glo) vs DMSO control (% of DMSO control); higher = more viable cells
condition_set: oxygen condition: normoxia 72 h; 1000 nM
Structures can show the parent of a compound that is named as a salt.
# note: exactly 100 is not below, so it is NO; use YES for relative cell viability strictly under it

CCCCN1CCCCC1C(=O)Nc1c(C)cccc1C (centres undefined) [Bupivacaine hydrochloride] : NO

Q: Confirm or reject: relative cell viability of O=S(=O)(O)Oc1ccc(C(c2ccc(OS(=O)(=O)O)cc2)c2ccccn2)cc1 [Sodium Picosulfate] lies strictly below 100
Ans: NO

Q: Please check: relative cell viability for Cn1c(=O)c2c(ncn2CC2OCCO2)n(C)c1=O [Doxofylline] , strictly under 100 or not?
Ans: NO

Q: Find out if reported relative cell viability for O=c1[nH]cc(F)c(=O)[nH]1 [Adrucil] is less than 100
Ans: YES

Q: Please check: relative cell viability for CCCc1nc2c(C)cc(-c3nc4ccccc4n3C)cc2n1Cc1ccc(-c2ccccc2C(=O)O)cc1 [Telmisartan] , strictly under 100 or not?
Ans: NO

Q: Lab note: relative cell viability threshold 100. Does this compound come in strictly under it? Nc1ncn([C@H]2C[C@H](O)[C@@H](CO)O2)c(=O)n1 [Decitabine]
Ans: YES

Q: Does this compound meet the criterion relative cell viability < 100? C=C(c1ccc(C(=O)O)cc1)c1cc2c(cc1C)C(C)(C)CCC2(C)C [Bexarotene]
Ans: NO

---

System: HL-1
protocol_text: relative cell viability (CellTiter-Glo) vs DMSO control (% of DMSO control); higher = more viable cells
condition_set: oxygen condition: normoxia 72 h; 200 nM
Where a name gives a salt, the structure may show the parent alone.
reported_property: relative cell viability
I only need the number, thanks.

Cc1ccc(NC(=O)c2ccc(CN3CCN(C)CC3)cc2)cc1Nc1nccc(-c2cccnc2)n1 [Imatinib Mesylate] : 146
CCOC(=O)[C@H](CCc1ccccc1)N[C@H]1CCCN2CCC[C@@H](C(=O)O)N2C1=O [Cilazapril monohydrate] : 106
NCCS [Cysteamine HCl] : 102

Q: What relative cell viability value was documented for this molecule, CN(C)c1nc(N(C)C)nc(N(C)C)n1 [Altretamine] ?
Ans: 103

Q: Which relative cell viability is reported for this molecule? COc1ccccc1OCC(O)CN1CCN(CC(=O)Nc2c(C)cccc2C)CC1 (stereo unspecified) [Ranolazine dihydrochloride]
Ans: 97.1

Q: Name the reported relative cell viability value associated with the molecule COC(=O)N[C@H](C(=O)N[C@@H](Cc1ccccc1)[C@@H](O)CN(Cc1ccc(-c2ccccn2)cc1)NC(=O)[C@@H](NC(=O)OC)C(C)(C)C)C(C)(C)C [Atazanavir sulfate]
Ans: 97

Q: Name the recorded relative cell viability for NC(=O)NO [Hydroxyurea] .
Ans: 103

Q: relative cell viability for C[C@H](CCC(=O)O)[C@H]1CC[C@H]2[C@@H]3[C@@H](O)C[C@@H]4C[C@H](O)CC[C@]4(C)[C@H]3CC[C@]12C [Ursodiol] ?
Ans: 105

Q: Record request: relative cell viability value, item CS(=O)(=O)CCNCc1ccc(-c2ccc3ncnc(Nc4ccc(OCc5cccc(F)c5)c(Cl)c4)c3c2)o1 [Lapatinib]
Ans: 96.8

Q: Endpoint output: relative cell viability of COc1cc2nc(N(C)CCCNC(=O)C3CCCO3)nc(N)c2cc1OC (stereo unspecified) [Alfuzosin hydrochloride] . Value?
Ans: 107

Q: // returns reported relative cell viability for input CC(=O)O[C@H]1C(=O)[C@@]2(C)[C@H]([C@H](OC(=O)c3ccccc3)[C@]3(O)C[C@H](OC(=O)[C@H](O)[C@@H](NC(=O)c4ccccc4)c4ccccc4)C(C)=C1C3(C)C)[C@]1(OC(C)=O)CO[C@@H]1C[C@@H]2O [Paclitaxel]
Ans: 52.2

Q: Fill blank: measured relative cell viability of the molecule CN(c1nccc(=O)[nH]1)C1CCN(c2nc3ccccc3n2Cc2ccc(F)cc2)CC1 [Mizolastine] is ____.
Ans: 94.6

Q: Data request, read-out relative cell viability, for CCOC(=O)[C@H](CCc1ccccc1)N[C@H]1CCc2ccccc2N(CC(=O)O)C1=O [Benazepril hydrochloride]
Ans: 109

Q: I would be grateful if you could share the reported relative cell viability for O=C(O)c1cn(C2CC2)c2cc(N3CCNCC3)c(F)cc2c1=O [Ciprofloxacin] .
Ans: 99.2

Q: Which relative cell viability reading was recorded for the molecule Cc1onc(-c2ccccc2)c1-c1ccc(S(N)(=O)=O)cc1 [Bextra] ?
Ans: 100

Q: Give the measured relative cell viability of CCN[C@H]1C[C@H](C)S(=O)(=O)c2sc(S(N)(=O)=O)cc21 [Dorzolamide HCL] .
Ans: 106

---

Test system: HL-1
protocol_text: relative cell viability (CellTiter-Glo) vs DMSO control (% of DMSO control); higher = more viable cells
condition_set: oxygen condition: hypoxia 48 h (1% O2) + reoxygenation 24 h; 5000 nM
Where a name gives a salt, the structure may show the parent alone.
// reported relative cell viability for each item listed
The answer should be a number; do not append a unit.

CC#CCn1c(N2CCC[C@@H](N)C2)nc2c1c(=O)n(Cc1nc(C)c3ccccc3n1)c(=O)n2C : 105
CCOC(=O)C1=C(COCCN)NC(C)=C(C(=O)OC)C1c1ccccc1Cl (stereo unspecified) [Amlodipine besylate] : 105
CCC(=O)O[C@]1(C(=O)CCl)[C@@H](C)C[C@H]2[C@@H]3CCC4=CC(=O)C=C[C@]4(C)[C@@]3(F)[C@@H](O)C[C@@]21C [Clobetasol propionate] : 97.3
Clc1ccc(COC(Cn2ccnc2)c2ccc(Cl)cc2Cl)c(Cl)c1 (stereo unspecified) : 104
CCN(CC)CCOc1ccc(C(=C(Cl)c2ccccc2)c2ccccc2)cc1 [Clomifene citrate] : 35.1
C=C1CC[C@H](O)C/C1=C/C=C1\CCC[C@]2(C)[C@@H]([C@H](C)CCCC(C)C)CC[C@@H]12 : 109
CN1CCC(OC(c2ccccc2)c2ccccc2)CC1 [Diphenylpyraline HCl] : 110
CN(C)CCC(c1ccc(Cl)cc1)c1ccccn1 (stereo unspecified) [Chlorpheniramine Maleate] : 117

Q: Give the reported relative cell viability for CC(=O)Oc1cc2c(s1)CCN(C(C(=O)C1CC1)c1ccccc1F)C2 (stereo unspecified) (system: HL-1).
Ans: 110

Q: Record lookup: for HL-1, what relative cell viability belongs to CCOC(=O)[C@H](CCc1ccccc1)N[C@@H](C)C(=O)N1CCC[C@H]1C(=O)O [Enalapril maleate] ?
Ans: 105

Q: Checklist item: relative cell viability tested on HL-1, entry CCOC(=O)c1ccc(OC(=O)CCCCCNC(=N)N)cc1 [Gabexate mesylate] , value?
Ans: 108

Q: Report relative cell viability for C[C@H](CCC(=O)O)[C@H]1CC[C@H]2[C@@H]3CC[C@@H]4C[C@H](O)CC[C@]4(C)[C@H]3CC[C@]12C tested on HL-1.
Ans: 113

Q: Write down the reported relative cell viability of CN1CC2c3ccccc3Oc3ccc(Cl)cc3C2C1 (stereo unspecified) , test system: HL-1.
Ans: 106

Q: Request: relative cell viability, test system HL-1, entry COc1cc2nccc(Oc3ccc(NC(=O)C4(C(=O)Nc5ccc(F)cc5)CC4)cc3)c2cc1OC
Ans: 115

Q: Any idea what relative cell viability came out for C=C1/C(=C\C=C2/CCC[C@]3(C)[C@@H]([C@H](C)CCCC(C)C)CC[C@@H]23)C[C@@H](O)C[C@@H]1O on HL-1?
Ans: 106

Q: Which relative cell viability is reported with HL-1 for this entry: Cc1cc2c(cc1S(N)(=O)=O)S(=O)(=O)CCC2 ?
Ans: 103

---

Tested on: HL-1
protocol_text: relative cell viability (CellTiter-Glo) vs DMSO control (% of DMSO control); higher = more viable cells
condition_set: oxygen condition: normoxia 72 h; 40 nM
Where a name gives a salt, the structure may show the parent alone.
reported_property: relative cell viability
Number only, please.

C=C1/C(=C\C=C2/CCC[C@]3(C)[C@@H]([C@H](C)/C=C/[C@H](C)C(C)C)CC[C@@H]23)C[C@@H](O)C[C@@H]1O : 106
NC(=O)N1c2ccccc2C=Cc2ccccc21 [Carbamazepine] : 103
CCc1ccc(CCOc2ccc(CC3SC(=O)NC3=O)cc2)nc1 (stereo not drawn) [Pioglitazone hydrochloride] : 94.5
Nc1nc(=O)c2c([nH]1)NCC(CNc1ccc(C(=O)N[C@@H](CCC(=O)O)C(=O)O)cc1)N2C=O (stereo partly drawn) : 98
CNC(=O)c1ccccc1Sc1ccc2c(/C=C/c3ccccn3)n[nH]c2c1 : 105

Q: Please report the recorded relative cell viability for C#C[C@]1(O)CC[C@H]2[C@@H]3CCc4cc(OC)ccc4[C@H]3CC[C@@]21C .
Ans: 99.9

Q: Look up relative cell viability: CCCCNC(=O)NS(=O)(=O)c1ccc(C)cc1 [Tolbutamide]
Ans: 103

Q: Query: relative cell viability; subject: Cc1[nH]c(=O)c(C#N)cc1-c1ccncc1
Ans: 99.8
